Tested on: E. coli BW25113 ΔtolC growth inhibition, OD615
Assay: growth inhibitors of E. coli tolC mutant, dose response, strain BW25113 ΔtolC::kan (AID 617);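 note: growth read after 20 h at 37 °C with compound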
propertyName: IC50

1. Cc1noc(C)c1C(=O)Nc1sc(C)c(-c2ccccc2)c1C#N | 9.36 µM
2. Cc1ccc2c(CC(=O)OCc3nc(N)nc(Nc4ccccc4C)n3)coc2c1 | 10 µM
3. O=S(=O)(Nc1nc2ccccc2nc1N1CCN(c2ccccn2)CC1)c1ccc(Cl)cc1 | 3.16 µM
4. CCCc1nc(SCC(=O)N2CCC(Cc3ccccc3)CC2)c2c(=O)n(C)c(=O)n(C)c2n1 | 11.2 µM
5. Cc1ccc2[nH]c3c(c2c1)CCc1cn[nH]c1-3 | 17.8 µM
6. O=C(CS(=O)(=O)c1ccccc1)Nc1nc(-c2ccccc2)cs1 | 8.07 µM
7. Brc1cccc(-c2n[nH]c(-c3ccccc3)n2)c1 | 23.8 µM
8. CCOC(=O)Cc1nnc2c(Nc3ccccc3F)nc3nonc3n12 | 6.82 µM
9. CC1CCCCN1c1nc(-c2ccncc2)nc2ccccc12 (stereo not given) | 12 µM
10. c1csc(-c2nc3nc4ccccc4nc3n2Cc2ccc3c(c2)OCO3)c1 | 9.62 µM

---

Test system: E. coli BW25113 ΔtolC growth inhibition, OD615
Experiment: growth inhibitors of E. coli tolC mutant, dose response, strain BW25113 ΔtolC::kan (AID 617);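 note: growth read after 20 h at 37 °C with compound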
Measured IC50 of individual entries
propertyName: IC50

1. C=CCn1c(SCC(O)Cn2c3ccccc3c3ccccc32)nnc1-c1ccco1 (stereo not given) | 21.6 µM
2. CCn1cc(C(=O)NCc2ccc3c(c2)OCO3)c(=O)c2cc(F)c(N3CCN(C)CC3)cc21 | 2.8 µM
3. Cc1ccc(/C(O)=C2\C(=O)C(=O)N(c3cc(C)on3)C2c2cccc(Br)c2)cc1 (stereo not given) | 13.8 µM
4. COc1ccc2c(c1)CCc1c(C(=O)N3CCc4ccccc4C3)noc1-2 | 5.76 µM
5. N#CC1=C(SCC(=O)NC23CC4CC(CC(C4)C2)C3)NC(=O)C(C#N)C12CCCCC2 (stereo not given) | 4.11 µM
6. COc1ccc(NC(=O)N(C2CCCCC2)C(C)c2ccco2)c(OC)c1 (stereo not given) | 15 µM
7. CCC(Oc1ccccc1)C(=O)Nc1ccc(-c2nnc(-c3ccco3)o2)cc1 (stereo not given) | 18.2 µM
8. CCCc1cc(-c2[nH]ncc2-c2ccc3c(c2)OCCCO3)c(O)cc1O | 5.48 µM
9. O=C(CSc1nc2ccccc2o1)Nc1nc2c(s1)CCCC2 | 8.02 µM
10. Cc1cc(OCCCC(=O)N2CCCCC2)cc(C)c1Cl | 28.2 µM
11. CCc1cc(/C(Cc2ccc3ccccc3n2)=N\O)c(O)cc1O | 8.41 µM
12. C=CCn1cc(C(=O)NCc2ccco2)c(=O)c2cc(S(=O)(=O)N3CCCCCC3)ccc21 | 16.1 µM
13. CCN1C(=O)CSC1=NC1C2CC3CC(C2)CC1C3 (stereo not given) | 33.5 µM
14. Oc1ccc2c(c1)oc1cc(O)ccc12 | 16.6 µM
15. Cc1nc(N2CCN(c3ccccc3)CC2)nc2c1C(=O)CCC2 | 26.6 µM
16. COc1ccc(Nc2nc(N3CCCC3)c3ccccc3n2)cc1 | 18.3 µM
17. CCSC1=C(C#N)C(c2ccc(Cl)cc2)C2=C(CCCC2=O)N1 (stereo not given) | 8.21 µM
18. Clc1ccc(C2=Nn3c(nnc3-c3n[nH]c4c3CCC4)SC2)cc1Cl | 11 µM
19. CCOC(=O)c1c(C)oc2ccc(NS(=O)(=O)c3ccc4c5c(cccc35)C(=O)N4)cc12 | 16.3 µM
20. COc1ccccc1N1CCN(C(c2ccc(Cl)cc2)c2nnnn2C(C)(C)C)CC1 (stereo not given) | 26.5 µM

---

Known IC50 of a selection of molecules
Tested on: E. coli BW25113 ΔtolC growth inhibition, OD615
Assay: growth inhibitors of E. coli tolC mutant, dose response, strain BW25113 ΔtolC::kan (AID 617);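 note: growth read after 20 h at 37 °C with compound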
propertyName: IC50

1) CC(C)C(c1nnnn1C1CCCC1)N1CCCc2ccccc21 (stereo not drawn) | 15.7 µM
2) c1ccc(-c2oc3ncnc(NCCCn4ccnc4)c3c2-c2ccccc2)cc1 | 6.05 µM
3) CCOC(=O)c1cc2sc(C)cc2n1C(C)C(=O)OCC (stereo not drawn) | 60.6 µM

---

System: E. coli BW25113 ΔtolC growth inhibition, OD615
Test: growth inhibitors of E. coli tolC mutant, dose response, strain BW25113 ΔtolC::kan (AID 617);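 note: growth read after 20 h at 37 °C with compound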
pIC50: −log10 of the molar value.
propertyName: pIC50

1. Cc1ccc(C)c(S(=O)(=O)C(C#N)c2nc3ccccc3nc2N2CCOCC2)c1 (configuration not stated) | 4.94
2. CCOC(=O)c1cnc(-n2nc(C)cc2C)nc1Nc1ccc(N(C)C)cc1 | 4.86
3. Cc1cc(C(=O)OCc2nnc(-c3ccccc3)o2)c(C)n1-c1ccccc1 | 5.01
4. CSc1nc(-c2ccccc2)nc(N2CCCC2)c1C(C)=O | 4.90
5. COc1c(C)cc(Br)cc1C(=O)Nc1cccc(NC(=O)c2ccco2)c1 | 5.13
6. Cc1cccc(-n2ncc3c(N4CCC(C)CC4)ncnc32)c1 | 4.89
7. COC(=O)c1c(NC(=O)Cc2cccs2)sc2c1CCCC2 | 5.05
8. CN1/C(=C\C(=O)COc2ccc3c(c2)OCO3)C(C)(C)c2ccccc21 | 4.95
9. c1ccc(-c2nc(N3CCCCCC3)nc(-n3ccnc3)n2)cc1 | 5.11
10. O=C(c1ccc2c(=O)n(C3CCCC3)c(=S)[nH]c2c1)N1CCN(C2CCCCC2)CC1 | 4.82
11. COc1ccc(-c2noc(CCCc3ccccc3)n2)cc1OC | 4.64
12. N#Cc1nc(-c2ccc(OCc3ccccc3)cc2)oc1NCCCN1CCOCC1 | 4.59
13. CCOC(=O)c1cc2c(ccn2C)n1Cc1ccccc1C | 4.56
14. COc1cccc(Cn2c(Oc3cccc(C)c3)nc3c2c(=O)n(C)c(=O)n3C)c1 | 4.84
15. Cc1ccc(Cn2c(SCC(C)C)nc3c2c(=O)n(C)c(=O)n3C)cc1 | 4.05
16. CC(C)Sc1nc(NCc2ccco2)c2c3c(sc2n1)COC(C)(C)C3 | 4.69
17. O=c1c2c(nc3c(-c4cccc5ccccc45)c[nH]n13)CCC2 | 5.15

---

Listed next: entries and their corresponding pIC50.
System: E. coli BW25113 ΔtolC growth inhibition, OD615
Assay: growth inhibitors of E. coli tolC mutant, dose response, strain BW25113 ΔtolC::kan (AID 617);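 note: growth read after 20 h at 37 °C with compound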
pIC50: −log10 of the molar value.
propertyName: pIC50

1. c1ccc(CCc2ccccc2-c2nc(-c3cccnc3)no2)cc1 | 4.92
2. COc1ccc2c(-c3ccccc3)cc(N3CCOCC3)nc2c1 | 4.75
3. Cc1csc(SCC(=O)Nc2nc(-c3ccccc3)cs2)n1 | 4.85
4. C=CCOC(=O)C(C#N)c1nc2ccccc2nc1N1CCN(Cc2ccccc2)CC1 (stereo unspecified) | 4.76
5. CCn1c(C(=O)N2CCC(C(=O)NCCCSC3CCCCC3)CC2)cc2sccc21 | 5.21
6. Cc1[nH]n2c(=O)c3c(nc2c1-c1ccc(Cl)cc1)CCC3 | 5.39
7. O=C(c1ccc(COc2ccc(Cl)cc2)o1)N1CCN(Cc2ccc3c(c2)OCO3)CC1 | 5.27
8. C=CCSc1n[nH]c(-c2ccc(OCCCC)cc2)n1 | 4.03
9. O=C(CCCOc1ccc(Cl)cc1Cl)N1CCN(c2ccccn2)CC1 | 5.22
10. O=C(NCc1ccc2c(c1)OCO2)c1ccc(-c2ccc(Cl)cc2)o1 | 5.30
11. N#C/C(=C\c1ccc[nH]1)Sc1nc2ccccc2s1 | 5.37
12. O=C(c1ccc(Cl)c(Cl)c1)N(Cc1ccco1)c1ccc(O)cc1 | 5.43
13. O=C(NC1CCCCC1)c1nc2c(nnn2Cc2ccccc2Cl)c(=O)[nH]1 | 5.21
14. COc1ccc(-c2cc(C(=O)N3CC4(C)CC3CC(C)(C)C4)no2)cc1OC (stereo unspecified) | 4.85
15. N#Cc1nc(Cc2ccccc2)oc1NCc1ccccc1Cl | 5.32
16. CC(C)C[C@H](NC(=O)OC(C)(C)C)c1nnc(SCc2cccc(F)c2)o1 | 4.93
17. CC1CN(c2nc3c(c(=O)n(Cc4ccc(Cl)c(Cl)c4)c(=O)n3C)n2C)CC(C)O1 (stereo unspecified) | 4.69
18. Cc1cccn2c(=O)c3c(nc12)N1CCC(Cc2ccccc2)CC1C1(C3)C(=O)N(C)C(=O)N(C)C1=O (stereo unspecified) | 4.75
19. COc1ccccc1OCC(=O)N(Cc1nc(-c2ccccc2)no1)C1CCCCC1 | 4.90
20. COc1ccc(OC)c(Nc2nc(-c3cccs3)cs2)c1 | 4.55
21. CCOC(=O)Cc1c(C)nc2c(-c3cccc(Br)c3)c[nH]n2c1=O | 6.77

Hello, the source for this data is PubChem BioAssay AID617, in case you need it.
